Reported activation values are given for each entry in this list.
# target_system: Kallikrein-7 (Homo sapiens)
# test_protocol: activation of human kallikrein-7 proenzyme – biochemical, fluorescence intensity, primary screen (AID 652039)
# experimental_conditions: purified proKLK7, EDANS-DABCYL substrate fluorescence; at 7 µM; active compounds read high; 100% is mature enzyme control, 0% vehicle
The whole screen tested about 370,000 compounds, of which about 3,300 (0.89%) were called active. Shown is part of a subset that was picked to be rich in actives.
Your answer is read as %, so omit the unit and give the number.

Previously resolved entries follow.
[[record]]
molecule = "CCn1c2ccccc2c2cc(NC(=O)CSc3nnc(-c4ccccc4)n3-c3ccc(C)cc3)ccc21"
measurement_type = "activation"
result_value = -0.54

[[record]]
molecule = "COc1ccc(OC)c(Cc2cnc3nc(N)nc(N)c3c2C)c1"
measurement_type = "activation"
result_value = -0.29

[[record]]
molecule = "O=S1(=O)c2ccc(Br)cc2OC[C@@H](Cc2ccccc2)N1Cc1cn(Cc2ccco2)nn1"
measurement_type = "activation"
result_value = 0.26

[[record]]
molecule = "CCOC(=O)[C@]12CCCC=C1N(Cc1ccc(OC)cc1)C(=O)[C@@H]2CC(=O)N1CCOCC1"
measurement_type = "activation"
result_value = -0.23

[[record]]
molecule = "C=CCOc1ccc(/C=C/C(=O)OCC(=O)NCC2CCCO2)cc1 (stereo not given)"
measurement_type = "activation"
result_value = -1.06


Qu. I'd like to know its activation. The molecule in question is CC(CCN1CCC(C(O)(c2ccccc2)c2ccccc2)CC1)Oc1ccc(Cl)cc1 (stereo not given)
Ans. -0.05

Qu. I'd like to know its activation. The molecule in question is COC(=O)[C@@]12CCCCC3=C1N(CCC3)C(=O)[C@H]2CC(=O)NCc1cccc2ccccc12
Ans. 0.65

Qu. I'd like to know its activation. The molecule in question is C=CCOC/C=C/C#CCN(CC=C)Cc1ccc(OC)cc1OC
Ans. 0.82

Qu. I'd like to know its activation. The molecule in question is Cc1csc(OCC(=O)Nc2ccc(C)c(C)c2)n1
Ans. 0.44

Qu. I'd like to know its activation. The molecule in question is CCOc1ccc(S(=O)(=O)NCCC(=O)NCC2CCCO2)cc1 (stereo not given)
Ans. 0.66

Data provenance: PubChem BioAssay AID652039
